Read-out: Ezrin (EZR), EZR (gene 7430)
Procedure summary: LTEA_HepaRG_EZR: Life Technologies and Expression Analysis (LTEA) Assay for Ezrin (EZR) using HepaRG (AID 2283491)
Experimental parameters: mRNA level, 48 h; actives raise or lower the signal
Calls of active or inactive are those of the source. How the source made its calls: active means hit-call score of the fitted dose curve at least 0.9, where 1 is the maximum; inactive means score below 0.9.
Hi there, use one of these labels in your reply, thanks! T = active, F = inactive

Worked examples follow.
Molecule: COc1ccc2sc(C(=O)Nc3nnn[nH]3)c(OC(C)C)c2c1
Assigned category: F
//
Molecule: CC(C)(O)c1coc(S(=O)(=O)NC(=O)Nc2c3c(cc4c2CCC4)CCC3)c1
Assigned category: F
//
Molecule: CCc1cc(SCc2sc(-c3ccc(C(F)(F)F)cc3)nc2CN2CCN(c3ccc(OC)cc3)CC2)ccc1OCC(=O)O
Assigned category: T
//
Molecule: COc1ccc(-n2nc(C(F)F)cc2-c2ccc(S(C)=O)cc2)cc1 (stereo not given)
Assigned category: F
//
Molecule: CCOC(=O)COc1ccc2c(c1)CC(NCC(O)c1cccc(Cl)c1)CC2 (stereo not given)
Assigned category: F
//
Molecule: Cc1ccc(O)cc1
Assigned category: F
//
Molecule: Cc1[nH]cnc1C[C@H]1CCc2c(C)c3ccccc3n2C1=O
Assigned category: T
//
Molecule: Nc1nc2ncc(CNc3ccc(C(=O)N[C@@H](CCC(=O)O)C(=O)O)cc3)nc2c(=O)[nH]1
Assigned category: F

input: Query: recorded result category for CN(C)c1ccc(Cc2ccc(N(C)C)cc2)cc1 in this test
output: F

input: Given Cn1c(=O)c2c(ncn2C)n(C)c1=O , state the outcome it received in this test.
output: F

input: Could you check what this test reported for Nc1cccc(N)c1 ?
output: F
